All figures here come from paper PMC5540273.

# Tested on: RSK1(Kin.Dom.2-C-terminal)
# Construct: gene RPS6KA1
# CONDITIONS USED: concentration: 1 μM, replicates: in singlicate; n = 1;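 note: KINOMEscan kinase panel screen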
OUTCOME MEASURE: %Inh (%)
Could you give me the number in %? Just the number is fine.

Check out these entries, answers already filled in.
INSERT INTO measurements (molecule, outcome_measure, obs_value) VALUES
  ('O=C(Nc1n[nH]c2cc(-c3cccc(F)c3)ccc12)C1CC1 [SB-735464]', '%Inh', 26),
  ('O=c1cc(N2CCOCC2)nc2n(Cc3cccc(F)c3)ccn12 [GSK2297430]', '%Inh', 0),
  ('O=C(NCCCN1CCOCC1)c1cccc(Nc2nccc(Nc3ccc(Oc4ccccc4)cc3)n2)c1 [GW663929]', '%Inh', 20);

Which measured %Inh value corresponds to Cc1cccc(-c2nc(Nc3ccc4ncsc4c3)c3ccccc3n2)n1 [GW867588] ?
16

Which measured %Inh value corresponds to COc1ccc(S(=O)(=O)NC2CCN(c3cc(C)nc(Nc4cccc(C#N)c4)n3)CC2)cc1.O=C(O)C(F)(F)F [GSK1653539] ?
0

Which measured %Inh value corresponds to Cc1cccc(Cn2ccn3c(=O)cc(N4CCOCC4)nc23)c1 [GSK2297542] ?
25

Which measured %Inh value corresponds to `Cn1ccc2ncnc(Oc3ccc(NC(=O)Nc4ccncc4)c(Cl)c3)c21` ?
0

Which measured %Inh value corresponds to `CCc1ccnc(/C=C/c2n[nH]c3cc(Sc4ccccc4C(=O)NC)ccc23)c1` ?
3

Which measured %Inh value corresponds to COc1ccc(Nc2nccc(N3CCC(NC(=O)Nc4cc(C)ccc4C)C3)n2)cc1 (stereo not drawn) [GSK1379741] ?
0

====

# Test system: ERBB4
# CONDITIONS USED: concentration: 1 μM, replicates: in singlicate; n = 1
Lab note - cut at 7% for %Inh: TRUE if strictly below, FALSE if not.

Worked examples follow.
INSERT INTO results (compound, category_label) VALUES
  ('Cc1nnc(-c2ccc(C)c(-c3ccc(C(=O)Nc4ccc(NS(C)(=O)=O)cc4)cc3)c2)o1 [GW702865]', 'FALSE'),
  ('Fc1ccc(-c2ncn(CCCN3CCOCC3)c2-c2cccnc2)cc1 [SB-211743]', 'TRUE');

// switching to the query compound
Dear colleague, could you confirm whether %Inh of COc1ccc(COc2cc(-n3cnc4ccccc43)sc2C(N)=O)cc1 [GSK1024304] falls below 7%? Thanks.
FALSE

====

Entries and their %Inh values follow.
# Test system: VEGFR2
# Construct: gene KDR
# CONDITIONS USED: concentration: 1 μM, replicates: in singlicate; n = 1
Could you give me the number in %? Just the number is fine.

INSERT INTO assay_data (molecule, obs_value) VALUES
  ('CCCCCc1nc2c(N)ncnc2n1CCCCC', 0);

Which measured %Inh value corresponds to `Fc1ccc(-c2nn3c(OCC(F)(F)F)cccc3c2-c2ccncc2)cc1` ?
0

Which measured %Inh value corresponds to `Nc1nccc(-c2c(-c3ccc(F)cc3)ncn2C2CCN(CC(F)(F)F)CC2)n1` ?
0

Which measured %Inh value corresponds to `COc1cc2c(cc1OCCN1CCN(C)CC1)ncc1c3ccc(C#N)cc3[nH]c21` ?
23

Which measured %Inh value corresponds to Cc1c(Cn2c(C)nn3c(=O)cc(N4CCOC(C)C4)nc23)cccc1C(F)(F)F (stereo not drawn) ?
0

Which measured %Inh value corresponds to `Cn1cc(-c2ccc3c(c2)CCN3C(=O)Cc2ccccc2Cl)c2c(N)ncnc21` ?
82

Which measured %Inh value corresponds to `CC(C)Oc1ccc2c(-c3ccnc(Nc4ccc(N5CCN(C)CC5)cc4)n3)cnn2n1` ?
60
